experiment: Solubility screening of Formula (I) in crystallization solvents at RT and 50° C. (TABLE 3); assay type: physicochemical; details: DMF, organic solvent or mixture, thermodynamic from solid, DMF; RT; read-out: Solubility Range
readout kind: solubility

Query CC[C@H](C)C(=O)N1CCC(NC(=O)Nc2ccc(OC(F)(F)F)c(F)c2)CC1 yields solubility of ≥ 46.1 mg/mL

###

assay: Equilibrium-solubility screening in solvents and excipients; type: physicochemical; conditions: SLS, 1x CMC, aqueous with cosolvent or surfactant or cyclodextrin, thermodynamic from solid
readout kind: solubility thermodynamic at 24 h

Query CC[C@H](C)C(=O)N1CCC(NC(=O)Nc2ccc(OC(F)(F)F)c(F)c2)CC1 [Form D] yields solubility thermodynamic at 24 h of < 100 µg/mL

###

test: Equilibrium-solubility screening in solvents and excipients; assay type: physicochemical; conditions: PEG 400, 100%, organic solvent or mixture, thermodynamic from solid
readout kind: solubility thermodynamic at 24 h (mg/mL)
Numbers only, in mg/mL.

Query CC[C@H](C)C(=O)N1CCC(NC(=O)Nc2ccc(OC(F)(F)F)c(F)c2)CC1 [Form D] yields solubility thermodynamic at 24 h of 20.1

###

assay: Equilibrium-solubility screening in solvents and excipients; type: physicochemical; details: NaOH solution, pH 10.0, pH 10, aqueous buffer, thermodynamic from solid, pH 10.0 NaOH
readout kind: solubility thermodynamic at 24 h

Query CC[C@H](C)C(=O)N1CCC(NC(=O)Nc2ccc(OC(F)(F)F)c(F)c2)CC1 [Form D] yields solubility thermodynamic at 24 h of < 100 µg/mL

###

assay: Solubility of Form C in binary solvent systems (TABLE 22); format: physicochemical; conditions: organic solvent or mixture; IPA, ratio of n-heptane to primary 13.3 (1st test point)
readout kind: solubility (mg/mL)
One number for each entry, in mg/mL.

Query CC[C@H](C)C(=O)N1CCC(NC(=O)Nc2ccc(OC(F)(F)F)c(F)c2)CC1 [Form C] yields solubility of 30

###

test: Solubility screening of Formula (I) in crystallization solvents at RT and 50° C. (TABLE 3); assay type: physicochemical; conditions: tetrahydrofuran (THF), organic solvent or mixture, thermodynamic from solid, THF; RT; read-out: Solubility Range
readout kind: solubility

Query CC[C@H](C)C(=O)N1CCC(NC(=O)Nc2ccc(OC(F)(F)F)c(F)c2)CC1 yields solubility of ≥ 48 mg/mL

###

experiment: Solubility screening of Formula (I) in crystallization solvents at RT and 50° C. (TABLE 3); format: physicochemical; settings: water, 50 °C, water, thermodynamic from solid, Water; 50° C.; read-out: Solubility Range
readout kind: solubility

Query CC[C@H](C)C(=O)N1CCC(NC(=O)Nc2ccc(OC(F)(F)F)c(F)c2)CC1 yields solubility of < 1360 µg/mL

###

Assay: Equilibrium-solubility screening in solvents and excipients
Type: physicochemical
Details: organic solvent or mixture, thermodynamic from solid; PEG300, PEG400, propylene glycol, vitamin E TPGS, Gelucire 44/14, castor oil hydrogenated, Capmul MCM NF, Capmul MCM EP, Kolliphor HS-15, Kolliphor EL, Labrasol, Transcutol HP; approx. 24 hours
Method: For these analyses, Form D or Form C was mixed with 0.5 or 1.0 mL of solvents and equilibrated for approximately 24 hours. The mixture was filtered through 0.45 μm centrifuge filters. As expected, the compound was not easily ionized at physiologically relevant pH. […] In addition, these excipients included surfactants, co-solvents, and lipids which are amenable for use in self-emulsifying drug delivery systems (SEDDS). […]
readout kind: solubility thermodynamic

Query CC[C@H](C)C(=O)N1CCC(NC(=O)Nc2ccc(OC(F)(F)F)c(F)c2)CC1 [Formula (I)] yields solubility thermodynamic of > 20 mg/mL
